biological target: α3β4 sites (Rattus norvegicus, UniProt P04757+P12392); construct: The brains from male Sprague-Dawley rats (n=4 per group) were extracted and frozen; assay: In vitro binding affinity, inhibition of 125I-IEB in rat brain slices (autoradiography), α3β4 sites; details: 125I-IEB in presence of 200 nmol/L cytisine
Sequence (P04757 26-499): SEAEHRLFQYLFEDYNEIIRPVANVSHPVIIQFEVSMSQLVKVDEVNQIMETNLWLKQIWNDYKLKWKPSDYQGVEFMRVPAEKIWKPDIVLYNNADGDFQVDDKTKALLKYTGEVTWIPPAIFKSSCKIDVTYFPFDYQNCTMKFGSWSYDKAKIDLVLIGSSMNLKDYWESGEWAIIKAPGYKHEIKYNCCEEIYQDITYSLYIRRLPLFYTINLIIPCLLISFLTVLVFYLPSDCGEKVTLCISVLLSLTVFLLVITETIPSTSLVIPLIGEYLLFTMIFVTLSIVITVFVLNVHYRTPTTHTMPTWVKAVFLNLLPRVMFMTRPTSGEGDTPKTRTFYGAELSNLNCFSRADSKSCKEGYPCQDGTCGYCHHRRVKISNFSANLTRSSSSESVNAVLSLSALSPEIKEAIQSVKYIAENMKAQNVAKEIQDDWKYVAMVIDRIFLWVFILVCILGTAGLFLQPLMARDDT
Sequence (P12392 21-495): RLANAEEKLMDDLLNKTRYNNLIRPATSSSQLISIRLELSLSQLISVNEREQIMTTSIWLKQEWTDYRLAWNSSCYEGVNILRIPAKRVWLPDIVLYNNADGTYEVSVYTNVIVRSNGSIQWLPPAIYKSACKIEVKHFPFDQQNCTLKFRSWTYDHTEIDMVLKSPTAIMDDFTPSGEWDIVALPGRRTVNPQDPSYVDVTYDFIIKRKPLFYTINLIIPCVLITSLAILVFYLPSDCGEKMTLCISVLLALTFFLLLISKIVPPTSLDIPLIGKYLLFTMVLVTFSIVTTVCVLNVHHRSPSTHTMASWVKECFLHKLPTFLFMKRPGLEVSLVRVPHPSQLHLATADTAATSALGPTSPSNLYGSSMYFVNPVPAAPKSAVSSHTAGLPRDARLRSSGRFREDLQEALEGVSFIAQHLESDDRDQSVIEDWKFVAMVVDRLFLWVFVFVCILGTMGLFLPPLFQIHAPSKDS
Endpoint: Ki

Ki for FCCCc1cncc(OC[C@@H]2CCCN2)c1 [nifrolidine] ?
> 0.03 µM

###

target: rat brain α4β2 receptors (Rattus norvegicus, UniProt P09483+P12390); construct: The brains from male Sprague-Dawley rats (n=4 per group) were extracted and frozen; experiment: Brain homogenate binding assay using 3H-cytisine; details: read-out: Binding affinity Ki for rat brain α4β2 receptors
Sequence (P09483 31-630): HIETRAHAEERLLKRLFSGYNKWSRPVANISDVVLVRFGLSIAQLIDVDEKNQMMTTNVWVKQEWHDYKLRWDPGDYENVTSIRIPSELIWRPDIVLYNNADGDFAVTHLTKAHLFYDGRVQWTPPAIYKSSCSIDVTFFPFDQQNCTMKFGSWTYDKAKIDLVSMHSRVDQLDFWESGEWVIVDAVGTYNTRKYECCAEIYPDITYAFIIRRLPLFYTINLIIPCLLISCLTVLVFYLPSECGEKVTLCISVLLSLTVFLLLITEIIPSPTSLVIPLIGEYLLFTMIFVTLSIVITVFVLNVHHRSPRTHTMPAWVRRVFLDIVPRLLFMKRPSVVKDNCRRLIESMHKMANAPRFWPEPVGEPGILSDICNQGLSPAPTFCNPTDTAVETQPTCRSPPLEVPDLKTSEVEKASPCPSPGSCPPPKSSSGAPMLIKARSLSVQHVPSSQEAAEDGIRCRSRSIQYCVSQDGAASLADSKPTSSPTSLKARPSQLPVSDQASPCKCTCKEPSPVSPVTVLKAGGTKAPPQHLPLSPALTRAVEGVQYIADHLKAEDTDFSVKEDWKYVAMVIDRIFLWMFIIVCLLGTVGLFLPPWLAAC
Sequence (P12390 25-500): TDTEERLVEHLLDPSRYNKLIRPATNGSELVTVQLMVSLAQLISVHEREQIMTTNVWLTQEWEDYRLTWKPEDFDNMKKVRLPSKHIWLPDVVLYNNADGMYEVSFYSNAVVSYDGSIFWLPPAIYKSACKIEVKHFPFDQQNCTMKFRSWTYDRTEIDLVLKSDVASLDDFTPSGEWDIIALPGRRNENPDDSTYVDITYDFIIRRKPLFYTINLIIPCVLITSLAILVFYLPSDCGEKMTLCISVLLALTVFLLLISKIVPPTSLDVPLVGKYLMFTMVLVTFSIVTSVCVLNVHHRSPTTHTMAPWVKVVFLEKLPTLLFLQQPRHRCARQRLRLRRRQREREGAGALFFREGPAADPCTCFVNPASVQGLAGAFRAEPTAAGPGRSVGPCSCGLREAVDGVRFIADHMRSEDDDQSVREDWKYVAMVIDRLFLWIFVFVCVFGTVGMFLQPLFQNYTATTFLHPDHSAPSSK
Endpoint: pKi
Just the number, please; pKi means minus log10 of the concentration in mol/L.

pKi for Ic1cncc(OC[C@@H]2C=CCN2)c1 ?
9.57
